// data source = patent US12421210B2

target.or.test.system: human NAMPT enzyme (His-hNAMPT) (Homo sapiens (Human))
Sequence (P43490 whole entry): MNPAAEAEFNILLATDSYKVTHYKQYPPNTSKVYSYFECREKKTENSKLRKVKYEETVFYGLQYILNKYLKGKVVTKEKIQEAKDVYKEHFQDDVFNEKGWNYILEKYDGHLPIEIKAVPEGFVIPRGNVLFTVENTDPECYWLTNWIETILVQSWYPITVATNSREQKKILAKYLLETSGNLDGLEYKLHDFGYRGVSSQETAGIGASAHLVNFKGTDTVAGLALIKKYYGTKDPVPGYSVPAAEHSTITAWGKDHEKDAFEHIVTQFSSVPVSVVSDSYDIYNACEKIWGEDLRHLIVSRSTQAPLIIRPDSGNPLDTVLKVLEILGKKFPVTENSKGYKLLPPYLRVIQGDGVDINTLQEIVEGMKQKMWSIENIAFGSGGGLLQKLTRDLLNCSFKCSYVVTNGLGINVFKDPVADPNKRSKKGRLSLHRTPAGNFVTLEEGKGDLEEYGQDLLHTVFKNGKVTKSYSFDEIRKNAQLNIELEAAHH
assay.overview: NAMPT enzymatic inhibition assay (fluorescence, NADH product)
Type: biochemical
condition.parameters: [HDB]; read-out: NAMPT IC50 (μM) [HDB]
property.name: IC50

Just so you know, measured IC50 for NC(=O)c1ccc(N2C[C@@H]3[C@@H](CCNC(=O)/C=C/c4cccnc4)[C@@H]3C2)cc1 [Example 186] came out at 0.01 to 0.49 µM

Please fill in: IC50 reported for N#Cc1ccccc1N1C[C@@H]2[C@@H](CCNC(=O)/C=C/c3cccnc3)[C@@H]2C1 [Example 135] = 0.01 to 0.49 µM

Note to self: IC50 recorded for O=C(/C=C/c1cccnc1)NCC[C@@H]1[C@H]2CN(c3cnccn3)C[C@@H]12 [Example 177] was 0.01 to 0.49 µM

The reported IC50 of the compound O=C(/C=C/c1cccnc1)NCC[C@@H]1[C@H]2CN(c3ccccc3C(F)(F)F)C[C@@H]12 [Example 140] was 0.01 to 0.49 µM

Reported IC50 for O=C(NCC[C@@H]1[C@H]2CN(c3ccc(F)cc3)C(=O)[C@@H]12)N1Cc2ccccc2C1 (racemic) [Example 266] was 0.01 to 0.49 µM

For reference, reported IC50 for O=C(/C=C/c1cccnc1)NCC[C@@H]1[C@H]2CN(CCc3ccccc3)C[C@@H]12 [Example 295] stands at 0.01 to 0.49 µM

The compound identified as O=C(/C=C/c1cccnc1)NCC[C@@H]1[C@H]2CN(C(c3ccccc3)c3ccccc3)C[C@@H]12 [Example 276] registered its IC50 at < 0.01 µM

IC50 reading for CC(c1cccc(F)c1)N1C[C@@H]2[C@@H](CCNC(=O)/C=C/c3cccnc3)[C@@H]2C1 (stereo partly drawn) [Example 323] : < 0.01 µM

Entry Nc1ccc(/C=C/C(=O)NCC[C@@H]2[C@H]3CN(c4cccc(F)c4)C[C@@H]23)cn1 [Example 201] — recorded IC50 = < 0.01 µM

The value of IC50 measured for the compound O=C(NCC[C@H]1[C@@H]2CN(c3ccccc3)C(=O)[C@H]12)c1cc(-c2cccnc2)on1 (stereo in doubt) [Example 261] turned out to be 0.01 to 0.49 µM

Query COc1ncc(F)c(N2C[C@@H]3[C@@H](CCNC(=O)/C=C/c4ccc(F)nc4)[C@@H]3C2)n1 [Example 313] yields IC50 of < 0.01 µM

GET /value?item= O=C(/C=C/c1cccnc1)NCC[C@@H]1[C@H]2CN(c3cc(Cl)cc(Cl)c3)C[C@@H]12 [Example 148] &field=IC50 returns < 0.01 µM

Sure, the documented IC50 for O=C(/C=C/c1cccnc1)NCC[C@@H]1[C@H]2CN(Cc3ccc(F)cc3F)C[C@@H]12 [Example 248] is 0.01 to 0.49 µM

Reported IC50 for O=C(CCc1cccnc1)NCC[C@@H]1[C@H]2CN(c3nc(Cl)ncc3F)C[C@@H]12 [Example 207] was < 0.01 µM

Recorded result, O=C(NCC[C@@H]1[C@H]2CN(c3ncccn3)C[C@@H]12)c1cc2cnccc2[nH]1 [Example 194] , IC50: 0.01 to 0.49 µM

Documented IC50 of O=C(/C=C/c1cccnc1)NCC[C@@H]1[C@H]2CN(Cc3ccc(Cl)cc3)C[C@@H]12 [Example 302] : 0.01 to 0.49 µM

COc1cc(N2C[C@@H]3[C@@H](CCNC(=O)/C=C/c4ccc(N)nc4)[C@@H]3C2)ccn1 [Example 339] yielded IC50 of 0.01 to 0.49 µM

Record summary for O=C(/C=C/c1cccnc1)NCC[C@@H]1[C@H]2CN(Cc3ncccn3)C[C@@H]12 [Example 294] : reported IC50 = 0.01 to 0.49 µM

Item: O=C(NCC[C@@H]1[C@H]2CN(c3nc(Cl)ncc3F)C[C@@H]12)c1cc2ccncc2o1 [Example 221] | IC50: 0.01 to 0.49 µM

The recorded IC50 for O=C(/C=C/c1cccnc1)NCC[C@@H]1[C@H]2CN(C(c3ccccc3)C(F)(F)F)C[C@@H]12 (stereo partly drawn) [Example 296] is < 0.01 µM

The recorded IC50 for O=C(/C=C/c1cccnc1)NCC[C@@H]1[C@H]2CN(c3ccnc(C(F)(F)F)c3)C[C@@H]12 [Example 159] is < 0.01 µM

Lab note: measured IC50 of O=C(/C=C/c1cccnc1)NCC[C@@H]1[C@H]2CN(CC3CCOCC3)C[C@@H]12 [Example 246] was 0.5 to 0.99 µM

The compound identified as O=C(/C=C/c1cccnc1)NCC[C@@H]1[C@H]2CN(c3cc(Cl)ccc3F)C[C@@H]12 [Example 150] registered its IC50 at 0.01 to 0.49 µM

Recorded IC50 (compound CC(c1ccncc1)N1C[C@@H]2[C@@H](CCNC(=O)/C=C/c3cccnc3)[C@@H]2C1 (stereo partly drawn) [Example 319] ): < 0.01 µM

The value of IC50 measured for the compound O=C(NCC[C@@H]1[C@H]2CN(c3ccccc3)C[C@@H]12)c1cc2ccncc2o1 [Example 193] turned out to be < 0.01 µM

Looking up O=C(NCC[C@@H]1[C@H]2CN(c3nc(Cl)ncc3F)C[C@@H]12)c1cc(-c2cccnc2)on1 [Example 208] , I found its IC50 recorded as < 0.01 µM

Value of IC50 reported for the compound O=C(NCC[C@@H]1[C@H]2CN(c3nc(Cl)ncc3F)C[C@@H]12)N1Cc2ccccc2C1 [Example 225] is < 0.01 µM

Measured IC50, O=C(NCC[C@@H]1[C@H]2CN(c3ccccc3)C[C@@H]12)c1cc2cnccc2[nH]1 [Example 198] : 0.01 to 0.49 µM

The compound listed as CS(=O)(=O)c1cccc(N2C[C@@H]3[C@@H](CCNC(=O)/C=C/c4cccnc4)[C@@H]3C2)c1 [Example 152] shows IC50 equal to 0.01 to 0.49 µM

Reported IC50 for O=C(/C=C/c1cccnc1)NCC[C@@H]1[C@H]2CN(c3nc(OC4CCOCC4)ncc3F)C[C@@H]12 [Example 305] was < 0.01 µM

----------
Record form. Attribute: IC50. Fill in for each entry.
target.or.test.system: UniProt P43490
assay.overview: NAMPT enzymatic inhibition assay (fluorescence, NADH product)
Type: biochemical
condition.parameters: [HDB]; read-out: NAMPT IC50 (μM) [HDB]

Measured IC50, O=C(/C=C/c1cccnc1)NCC[C@@]1(F)[C@@H]2CN(Cc3ccccc3)C[C@@H]21 [Example 289] : 0.01 to 0.49 µM

Field IC50 (entry CC(c1ccc(F)cc1)N1C[C@@H]2[C@@H](CCNC(=O)/C=C/c3ccc(N)nc3)[C@@H]2C1 (stereo partly drawn) [Example 340] ) reads 0.01 to 0.49 µM

The compound listed as Nc1ncc(F)c(N2C[C@@H]3[C@@H](CCNC(=O)/C=C/c4cccnc4)[C@@H]3C2)n1 [Example 312] shows IC50 equal to < 0.01 µM

The reported IC50 of the compound Nc1ccc(/C=C/C(=O)NCC[C@@H]2[C@H]3CN(c4cccc(C(F)(F)F)c4)C[C@@H]23)cn1 [Example 202] was 0.01 to 0.49 µM

get_value(item= NC(=O)c1cccc(C(=O)N2C[C@@H]3[C@@H](CCNC(=O)/C=C/c4cccnc4)[C@@H]3C2)c1 [Example 115] , readout=IC50) returns < 0.01 µM

Memo: O=C(/C=C/c1cccnc1)NCC[C@@H]1[C@H]2CN(c3ccnc(Cl)c3)C[C@@H]12 [Example 160] , reported IC50: < 0.01 µM

IC50 measured on O=C(NCC[C@@H]1[C@H]2CN(c3ncccn3)C[C@@H]12)c1cnc2nccn2c1 [Example 199] = 0.01 to 0.49 µM

Short answer for O=C(/C=C/c1cccnc1)NCC[C@@H]1[C@H]2CN(S(=O)(=O)c3ccccc3)C[C@@H]12 [Example 23] : IC50 was 0.01 to 0.49 µM

// sample O=C(/C=C/c1ccncc1)NCC[C@@H]1[C@H]2CN(c3nc(Cl)ncc3F)C[C@@H]12 [Example 214] , its IC50 was 0.01 to 0.49 µM

Entry under test: O=C(/C=C/c1cccnc1)NCC[C@@H]1[C@H]2CN(c3ncc(F)c(Cl)n3)C[C@@H]12 [Example 188] . Its IC50 was < 0.01 µM

Value of IC50 reported for the compound COc1cc(N2C[C@@H]3[C@@H](CCNC(=O)/C=C/c4cccnc4)[C@@H]3C2)ccn1 [Example 161] is 0.01 to 0.49 µM

// recorded IC50 for CC(C)(C)OC(=O)N1C[C@@H]2[C@@H](CNC(=O)COc3cccnc3)[C@@H]2C1 [Example 233] : 1 to 29 µM

Given item Nc1ccc(/C=C/C(=O)NCC[C@@H]2[C@H]3CN(c4ncc5ccccc5n4)C[C@@H]23)cn1 [Example 165] , the value recorded as its IC50 is 0.01 to 0.49 µM

What the record says about O=C(/C=C/c1ccc(O)nc1)NCC[C@@H]1[C@H]2CN(c3nc(Cl)ncc3F)C[C@@H]12 [Example 211] : IC50 is 0.01 to 0.49 µM

// recorded IC50 for O=C(/C=C/c1cccnc1)NCC[C@@H]1[C@H]2CN(c3nc(N4CCNC(=O)C4)ncc3F)C[C@@H]12 [Example 333] : < 0.01 µM
